Tested on: Staphylococcus aureus
Assay: Antibacterial activity against Staphylococcus aureus ATCC 25923 after 18 hrs by NCCLS M7-A4 method
Assay type: functional, organism-based
Active and inactive are the calls of the source. The rule behind the calls is not given here.

{"compound": "CN[C@H](CC(C)C)C(=O)N[C@H]1C(=O)N[C@@H](CC(N)=O)C(=O)N[C@H]2C(=O)N[C@H]3C(=O)N[C@H](C(=O)N[C@H](C(=O)O)c4cc(O)cc(O)c4-c4cc3ccc4O)[C@H](O)c3ccc(c(Cl)c3)Oc3cc2cc(c3O[C@@H]2O[C@H](CO)[C@@H](O)[C@H](O)[C@H]2O[C@H]2C[C@](C)(N)[C@H](O)[C@H](C)O2)Oc2ccc(cc2Cl)[C@H]1O [VANCOMYCIN]", "Activity": "inactive"}
{"compound": "COC(=O)C1C(=O)C=C(NC[C@H]2CN(c3ccc(N4CCOCC4)c(F)c3)C(=O)O2)CC1C (stereo partly drawn)", "Activity": "inactive"}
{"compound": "COC(=O)C1C(=O)C=C(NC[C@H]2CN(c3ccc(N4CCOCC4)c(F)c3)C(=O)O2)CC1c1ccccc1 (stereo partly drawn)", "Activity": "inactive"}
{"compound": "CCOC(=O)C1C(=O)C=C(Nc2ccc(N3CCOCC3)c(F)c2)CC1c1ccccc1 (stereo not drawn)", "Activity": "inactive"}
{"compound": "O=C1O[C@@H](Cn2ccnn2)CN1c1ccc(N2CCOCC2)c(F)c1", "Activity": "inactive"}
{"compound": "CCOC(=O)C1C(=O)C=C(NC[C@H]2CN(c3ccc(N4CCOCC4)c(F)c3)C(=O)O2)CC1C (stereo partly drawn)", "Activity": "inactive"}
{"compound": "CCOC(=O)C1C(=O)C=C(Nc2ccc(N3CCOCC3)c(F)c2)CC1C (stereo not drawn)", "Activity": "inactive"}
{"compound": "CC(=O)NC[C@H]1CN(c2ccc(N3CCOCC3)c(F)c2)C(=O)O1 [LINEZOLID]", "Activity": "inactive"}
